The measurements presented in this section are drawn from the supplement of paper PMC7125110.

The variants listed here are annotated with their self-cleavage kobs at 160 uM GlcN6P.
B1: glmS ribozyme (parent)
chain: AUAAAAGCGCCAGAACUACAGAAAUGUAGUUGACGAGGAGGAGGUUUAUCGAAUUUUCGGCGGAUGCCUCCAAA

Variants of: B1
Experiment: self-cleavage kobs at 160 uM GlcN6P; higher = faster cleavage; RNA array
Conditions: with glucosamine-6-phosphate
This sample holds only a part of the variants without activity.

// known answers, use as guide
AUAAAAGCGCCAGAACUACAGAAAUGUAGUUGACGAGGAGGAGGUUGAUCGAAUUUUCGGCGGAUGCCUCUAAA [U47G C71U]: 0.000648 s⁻¹
AUAAAAGCGCCAGUACUACAGAAAUGUAGUUGACGAGGAGGAGGAAUAUCGAAUUUUCGGCGGAUGCCUCCAAA [A14U U45A U46A]: 0.00056 s⁻¹
AUAAAAGCGCCAGAACUACAGAAAUGUAGUUGACGAGCAGGAGGUUUAUCUAAUUUCCGGCGGAUGCCUCCAAA [G38C G51U U57C]: < 1e-05 s⁻¹
AUAAAAGCGCCAGAACUACAGAAAUGUACUUGAUGAGGAGGAGGUUUAUCGAAUUUUCGGCGGAUGCCUCCAAA [G29C C34U]: < 1e-05 s⁻¹
AUAAAAGCGCCAGAACUACAGAAAUGUAGUUGACAAGUAGGAGGUUUAUCGAAUUUUCGGCGGAUGCCUCCAAA [G35A G38U]: < 1e-05 s⁻¹

Lookup: Check the records and state self-cleavage kobs at 160 uM GlcN6P for AUAAAAGCGCCAGAACUACAGAAAUGUAGUUGACGAGGAGGAGGUCUAUCGAAUUUUCGGCGGAUGACUCCAAA [U46C C67A]
Found: 6.58e-05 s⁻¹

Lookup: Check the records and state self-cleavage kobs at 160 uM GlcN6P for AUAAAAGCGCCAGAACUACAGAAAUGUACUUGACGGGGAGUAGGUUUAUCGAAUUUUCGGCGGAUGCCUCCAAA [G29C A36G G41U]
Found: < 1e-05 s⁻¹

Lookup: Check the records and state self-cleavage kobs at 160 uM GlcN6P for AUAAAAGGUCCAGAACUACAGAAAUGUACUUCACGAGGAGGAGGUUUAUCGCAUUUUCGGCGGAUGCCUCCAAA [C8G G9U G29C G32C A52C]
Found: < 1e-05 s⁻¹

Lookup: Check the records and state self-cleavage kobs at 160 uM GlcN6P for AUAAAAGCGCUAGAACUACAGAAAUGUAGUUGACGAGGAGGAGGUUUAUCGAAUUUUCGGCGGAUGCCUGCAAA [C11U C70G]
Found: 0.000313 s⁻¹

Lookup: Check the records and state self-cleavage kobs at 160 uM GlcN6P for AUAAAAGCGCCAGAACUACAGAAAUGUAGUUGACGAGGAGGAGGUUUAUGGAAUUUUAGGCCCAUGCCUACAAA [C50G C58A G62C G63C C70A]
Found: 0.000204 s⁻¹

Lookup: Check the records and state self-cleavage kobs at 160 uM GlcN6P for AUAAAAACGCCAGAACUACAGAAAUGUAGUUGACGAGUAGGAGCUUUAACGAUUUCUCGGCGGAUGCCUCCAAA [G7A G38U G44C U49A A53U U56C]
Found: < 1e-05 s⁻¹

Lookup: Check the records and state self-cleavage kobs at 160 uM GlcN6P for AUAAAAGCGCCAGAACUACAGAAAUGUAGUUGACGAGGAGGGGGUGUAUCGAAUUUUCGGCGGAUGCCUCCAAA [A42G U46G]
Found: 0.000694 s⁻¹

Lookup: Check the records and state self-cleavage kobs at 160 uM GlcN6P for AUAAAAGCGCCGGAACUACAGAAAUGUAGUUGACCAGGAGGAGGUUUAUCGAAUUUUCGGCGGAUGCCUCCAAA [A12G G35C]
Found: < 1e-05 s⁻¹

Lookup: Check the records and state self-cleavage kobs at 160 uM GlcN6P for AUAAAAGCACCAGAACUACAGAAAUGUAGUUGACGAGGAGGAGGUUUAUCGAAUUUUAGGCGGAUGCCUCCAAA [G9A C58A]
Found: < 1e-05 s⁻¹

Lookup: Check the records and state self-cleavage kobs at 160 uM GlcN6P for AUAAAAGCGACAGAACUACAGAAAUGUAGUUGACGAGGAUGAGGUUUAUCGAAUUUUCGGCGGAUGCCUCCAAA [C10A G40U]
Found: < 1e-05 s⁻¹

Lookup: Check the records and state self-cleavage kobs at 160 uM GlcN6P for AUAAAAGGGCCAGAACUACAGAAAUGUAGUUGACGAGGAGGAGGUUUAUCGAAUUUUCGGCGGGUGCCUCCAAA [C8G A64G]
Found: < 1e-05 s⁻¹
